assay_system: T1, Human IL-2 (human, UniProt P60568 21-153)
T1 construct: Soluble analyte in the SPR experiments; also called hIL-2; recombinant human IL-2
T1 sequence (P60568 21-153 limits assumed): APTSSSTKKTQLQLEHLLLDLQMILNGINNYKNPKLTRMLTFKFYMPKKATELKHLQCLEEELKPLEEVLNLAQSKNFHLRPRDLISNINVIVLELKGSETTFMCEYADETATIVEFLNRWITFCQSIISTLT
test_protocol: SPR, multi-cycle, antibody captured, hIL-2 analyte
For each entry below, report its pKd value.
Numbers only, as −log10 of the molar value.

Here are 3 binders together with their reported answers.
{"binder": "BDG17.067 (antibody, human IgG1, kappa, L234A L235A, V domains shown, Humanized IgG1 with the LALA mutation; also called BDG17.0067) VH: QVQLVQSGAEVKKPGSSVKVSCKASGYSITDYLIHWVRQAPGQGLEWMGWIDPEDGVTAYAQKFQGRVTLTADTSTSTAYMELSSLRSEDTAVYYCARSLDYDPIYPFAYWGQGTLVTVSS VL: DIVMTQSPDSLAVSLGERATINCKSSQSLLRNGNQKNYLAWYQQKPGQPPKLLIYYASTGQSGVPDRFSGSGSGTDFTLTISSLQAEDVAVYYCQQHYVTPPTFGAGTKVEIKR", "observed_result": 10.96}
{"binder": "BDG17.069 (AU-007) (antibody, human IgG1, kappa, L234A L235A, V domains shown, Human IgG1-LALA) VH: QVQLVQSGAEVKKPGSSVKVSCKASGYSITDDLIHWVRQAPGQGLEWMGWIDPEDGETNYAQKFQGRVTLTADTSTSTAYMELSSLRSEDTAVYYCARSLDSTWIYPFAYWGQGTLVTVSS VL: DIVMTQSPDSLAVSLGERATINCKSSQSLLRRGNQKNHLAWYQQKPGQPPKLLIYDASTGQSGVPDRFSGSGSGTDFTLTISSLQAEDVAVYYCLQSYITPPTFGAGTKVEIKR", "observed_result": 10.97}
{"binder": "BDG17.043 (antibody, V domains shown, Humanized IgG1; also called BDG017.043) VH: QVQLVQSGAEVKKPGSSVKVSCKASGYSITDYLIHWVRQAPGQGLEWMGWIDPEDGVTAYAQKFQGRVTLTADTSTSTAYMELSSLRSEDTAVYYCARSLDYDPIYPFAYWGQGTLVTVSS VL: DIVMTQSPDSLAVSLGERATINCKSSQSLLRNGNQKNYLAWYQQKPGQPPKLLIYYASTGQSGVPDRFSGSGSGTDFTLTISSLQAEDVAVYYCQQHYVTPPTFGAGTKVEIK", "observed_result": 10.32}

Request: Quickly give me recorded pKd for BDG17.066 (antibody, human IgG1, kappa, L234A L235A, V domains shown, Humanized IgG1 with the LALA mutation (L234A, L235A)) VH: QVQLVQSGAEVKKPGSSVKVSCKASGYSITDSLIHWVRQAPGQGLEWMGWIDPEDGEINYAQKFQGRVTLTADTSTSTAYMELSSLRSEDTAVYYCARSLDSYPIDPFAYWGQGTLVTVSS VL: DIVMTQSPDSLAVSLGERATINCKSSQSLLRNGNQQNYLAWYQQKPGQPPKLLIYYASTGQSGVPDRFSGSGSGTDFTLTISSLQAEDVAVYYCQQHYVTPPTFGAGTKVEIKR
Result: 10.29
